Assign Ratio IC50 to each entry below.
species: Homo sapiens; experiment: Selectivity index, ratio of IC50 for human recombinant BuChE to IC50 for human recombinant AChE

Sample records with Ratio IC50:
In [3]: df
Out[3]:
                                   compound  recordedvalue
0  O=c1oc2cc(OCCN3CCN(Cc4ccccc4)CC3)ccc2c2ccccc12           13.4
1  COc1cccc(CN(C)CCCOc2ccc3c4c(c(=O)oc3c2)CCCC4)c1           > 14
2  CN(CCOc1ccc2c(c1)oc(=O)c1ccccc12)Cc1ccccc1            2.1

For every listed record, write down its Ratio IC50.
1. COc1cccc(CC2CCN(CCCOc3ccc4c(c3)oc(=O)c3ccccc34)CC2)c1
2. COc1cccc(CC2CCN(CCCOc3ccc4c5c(c(=O)oc4c3)CCCC5)CC2)c1
3. O=c1oc2cc(OCCCN3CCC(Cc4ccccc4)CC3)ccc2c2c1CCCC2
4. O=c1oc2cc(OCCCN3CCN(Cc4ccccc4)CC3)ccc2c2c1CCCC2
5. CN(CCCCOc1ccc2c3c(c(=O)oc2c1)CCCC3)Cc1ccccc1

> 2
> 8
> 9
3.4
18.9

----------
tested on: Rattus norvegicus; test: Antagonism of scopolamine-induced passive avoidance in Wistar rat assessed as latency of visiting dark box measured for 5 mins at 1 mg/kg, po dosed 30 mins after scopolamine challenge and measured 1 hr post dose; type: functional
Assign inhibition in vivo at 1 mg/kg to each entry below.
One number for each entry, in %.

For every listed record, write down its inhibition in vivo at 1 mg/kg.
1. C[C@@H](c1ccc2c(c1)oc(=O)c1ccccc12)N(C)C
2. COc1cc2c(cc1OC)C(=O)C(CC1CCN(Cc3ccccc3)CC1)C2 (stereo not given)
3. CC(c1ccc2c(c1)oc(=O)c1ccccc12)N(C)C (racemic)
4. CN(CCCCOc1ccc2c3c(c(=O)oc2c1)CCCC3)Cc1ccccc1
5. COc1cc(C(C)N(C)C)cc2oc(=O)c3ccccc3c12 (racemic)

[71, 58, 70, 65, 71]

----------
species on record: Homo sapiens; assay: Selectivity index, ratio of IC50 for human recombinant BuChE to IC50 for human recombinant AChE
Assign Ratio IC50 to each entry below.
Answers are plain numbers.

Sample records with Ratio IC50:
                                   compound  resulttype  recordedvalue
0  COc1cccc(CN2CCN(CCCCOc3ccc4c5c(c(=O)oc4c3)CCCC5)CC2)c1  Ratio IC50            2.7
1  COc1cc(C(C)N(C)C)cc2oc(=O)c3ccccc3c12 (racemic)  Ratio IC50            7.5
2  COc1cccc(CN(C)CCCOc2ccc3c(c2)oc(=O)c2ccccc23)c1  Ratio IC50            1.4
3  COc1cccc(CN(C)CCOc2ccc3c(c2)oc(=O)c2ccccc23)c1  Ratio IC50            1.8
4  O=c1oc2cc(OCCCCN3CCN(Cc4ccccc4)CC3)ccc2c2c1CCCC2  Ratio IC50            2.3

For every listed record, write down its Ratio IC50.
1. O=c1oc2cc(OCCCCN3CCC(Cc4ccccc4)CC3)ccc2c2c1CCCC2
2. O=c1oc2cc(OCCN3CCN(Cc4ccccc4)CC3)ccc2c2c1CCCC2
3. COc1cccc(CN2CCN(CCCOc3ccc4c5c(c(=O)oc4c3)CCCC5)CC2)c1
4. COc1cccc(CC2CCN(CCCCOc3ccc4c5c(c(=O)oc4c3)CCCC5)CC2)c1
5. CN(CCCCOc1ccc2c(c1)oc(=O)c1ccccc12)Cc1ccccc1

1. 2.2
2. 24.6
3. 2.9
4. 2
5. 5.9

----------
Assign pIC50 to each entry below.
target: UniProt:P22303; test: Inhibition of human recombinant AChE using acetylthiocholine iodide substrate incubated for 15 mins by spectrophotometry based Ellman's method
One number for each entry, as −log10 of the molar value.

In [3]: df
Out[3]:
                                 smilescode  recordedvalue
0  CN(CCCOc1ccc2c(c1)oc(=O)c1ccccc12)Cc1ccccc1           5.07

For every listed record, write down its pIC50.
1. COc1cccc(CN2CCN(CCCOc3ccc4c5c(c(=O)oc4c3)CCCC5)CC2)c1
2. COc1cccc(CN(C)CCCOc2ccc3c4c(c(=O)oc3c2)CCCC4)c1
3. O=c1oc2cc(OCCCN3CCN(Cc4ccccc4)CC3)ccc2c2ccccc12
4. COc1cccc(CC2CCN(CCCCOc3ccc4c(c3)oc(=O)c3ccccc34)CC2)c1
5. COc1cccc(CN2CCN(CCOc3ccc4c5c(c(=O)oc4c3)CCCC5)CC2)c1
6. COc1cccc(CN2CCN(CCCCOc3ccc4c5c(c(=O)oc4c3)CCCC5)CC2)c1

1: 5.21; 2: 5.57; 3: 6.10; 4: 4.56; 5: 5.14; 6: 5.06

For every listed record, write down its pIC50.
1. CN(CCOc1ccc2c(c1)oc(=O)c1ccccc12)Cc1ccccc1
2. COc1cccc(CN(C)CCOc2ccc3c(c2)oc(=O)c2ccccc23)c1
3. COc1cccc(CN2CCN(CCOc3ccc4c(c3)oc(=O)c3ccccc34)CC2)c1
4. O=c1oc2cc(OCCCN3CCC(Cc4ccccc4)CC3)ccc2c2c1CCCC2
5. CN(CCOc1ccc2c3c(c(=O)oc2c1)CCCC3)Cc1ccccc1
6. COc1cccc(CC2CCN(CCCOc3ccc4c(c3)oc(=O)c3ccccc34)CC2)c1
7. COc1cccc(CC2CCN(CCCOc3ccc4c5c(c(=O)oc4c3)CCCC5)CC2)c1

1: 5.17; 2: 4.74; 3: 4.94; 4: 5.37; 5: 5.55; 6: 4.73; 7: 5.31

For every listed record, write down its pIC50.
1. COc1cccc(CC2CCN(CCOc3ccc4c5c(c(=O)oc4c3)CCCC5)CC2)c1
2. COc1cccc(CN(C)CCCCOc2ccc3c(c2)oc(=O)c2ccccc23)c1

1. 4.43
2. 5.08

----------
target: Acetylcholinesterase (Homo sapiens); experiment: Inhibition of human recombinant AChE using acetylthiocholine iodide substrate incubated for 15 mins by spectrophotometry based Ellman's method
Sequence (P22303 whole entry): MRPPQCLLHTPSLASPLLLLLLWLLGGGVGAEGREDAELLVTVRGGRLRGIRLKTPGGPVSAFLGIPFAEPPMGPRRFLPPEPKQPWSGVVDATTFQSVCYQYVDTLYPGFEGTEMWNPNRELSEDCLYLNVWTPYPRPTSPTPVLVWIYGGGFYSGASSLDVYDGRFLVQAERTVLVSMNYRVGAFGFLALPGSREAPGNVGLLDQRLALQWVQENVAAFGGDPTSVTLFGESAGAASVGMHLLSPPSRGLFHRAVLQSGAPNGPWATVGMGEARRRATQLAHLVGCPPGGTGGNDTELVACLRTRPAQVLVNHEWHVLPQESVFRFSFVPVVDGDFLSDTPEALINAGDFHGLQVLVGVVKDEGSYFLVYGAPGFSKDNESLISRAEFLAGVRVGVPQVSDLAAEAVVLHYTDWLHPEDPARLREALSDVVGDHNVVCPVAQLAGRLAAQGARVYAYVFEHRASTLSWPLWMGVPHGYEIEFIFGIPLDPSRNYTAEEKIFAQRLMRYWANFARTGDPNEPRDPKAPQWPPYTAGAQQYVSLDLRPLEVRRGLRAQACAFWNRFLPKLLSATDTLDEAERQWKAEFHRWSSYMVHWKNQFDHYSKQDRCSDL
The label is t for IC50 below 10000 nM and f for IC50 equal to or exceeding 10000 nM.

// below: answered compounds
>>> df
                                 smilescode  classification
0  COc1cccc(CC2CCN(CCCCOc3ccc4c5c(c(=O)oc4c3)CCCC5)CC2)c1               f
1  O=c1oc2cc(OCCN3CCN(Cc4ccccc4)CC3)ccc2c2ccccc12               t
2  CN(CCCCOc1ccc2c3c(c(=O)oc2c1)CCCC3)Cc1ccccc1               t
3  CN(CCCOc1ccc2c3c(c(=O)oc2c1)CCCC3)Cc1ccccc1               t

In the following, a different compound is considered.
State whether 10000 nM exceeds IC50 recorded for "COc1cccc(CC2CCN(CCOc3ccc4c(c3)oc(=O)c3ccccc34)CC2)c1" .
f

----------
Assign inhibition in vivo at 1 mg/kg to each entry below.
tested on: Rattus norvegicus; assay: Antagonism of scopolamine-induced passive avoidance in Wistar rat assessed as latency of visiting dark box measured for 5 mins at 1 mg/kg, po dosed 30 mins after scopolamine challenge and measured 1 hr post dose; assay type: functional
Give bare numbers, in %.

                                   molecule  unitdescriptor  recordedvalue
0  O=c1oc2cc(OCCCN3CCN(Cc4ccccc4)CC3)ccc2c2ccccc12               %             85
1  O=c1oc2cc(OCCCN3CCN(Cc4ccccc4)CC3)ccc2c2c1CCCC2               %             58
2  CN(CCCCOc1ccc2c(c1)oc(=O)c1ccccc12)Cc1ccccc1               %             62
3  CC(c1cc(O)c2c(c1)oc(=O)c1ccccc12)N(C)C (racemic)               %             49

Let us move to another entry and its inhibition in vivo at 1 mg/kg.
Any idea what inhibition in vivo at 1 mg/kg came out for CCN(C)C(=O)Oc1cccc([C@H](C)N(C)C)c1 (racemic) on Rattus norvegicus?
85

----------
molecular target: Cholinesterase (Homo sapiens, UniProt P06276); test: Inhibition of human recombinant BuChE using butyrylthiocholine iodide substrate incubated for 15 mins by spectrophotometry based Ellman's method
Sequence (P06276 whole entry): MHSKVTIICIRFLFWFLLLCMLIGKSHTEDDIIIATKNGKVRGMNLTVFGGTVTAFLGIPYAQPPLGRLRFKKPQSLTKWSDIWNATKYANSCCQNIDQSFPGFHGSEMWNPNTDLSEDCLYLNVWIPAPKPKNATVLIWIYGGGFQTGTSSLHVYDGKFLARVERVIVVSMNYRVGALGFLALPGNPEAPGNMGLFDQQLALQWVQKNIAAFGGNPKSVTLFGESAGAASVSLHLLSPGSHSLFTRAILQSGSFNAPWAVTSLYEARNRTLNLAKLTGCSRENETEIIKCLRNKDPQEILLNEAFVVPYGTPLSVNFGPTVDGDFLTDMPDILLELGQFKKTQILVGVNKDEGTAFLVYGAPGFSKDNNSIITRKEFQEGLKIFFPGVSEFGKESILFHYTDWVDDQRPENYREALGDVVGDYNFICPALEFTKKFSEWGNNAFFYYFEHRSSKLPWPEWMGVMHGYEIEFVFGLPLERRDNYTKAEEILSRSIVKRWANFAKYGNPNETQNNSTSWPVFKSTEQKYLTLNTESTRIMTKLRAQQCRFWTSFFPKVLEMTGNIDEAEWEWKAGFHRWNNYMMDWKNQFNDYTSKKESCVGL
resultType: pIC50
Answers are plain numbers, as −log10 of the molar value.

Sample records with pIC50:
>>> df
                                 smilescode  recordedvalue
0  CN(CCOc1ccc2c(c1)oc(=O)c1ccccc12)Cc1ccccc1           4.85
1  CN(CCCOc1ccc2c(c1)oc(=O)c1ccccc12)Cc1ccccc1           4.83
2  O=c1oc2cc(OCCN3CCN(Cc4ccccc4)CC3)ccc2c2ccccc12           4.92
3  O=c1oc2cc(OCCCCN3CCN(Cc4ccccc4)CC3)ccc2c2c1CCCC2           4.84
4  O=c1oc2cc(OCCCN3CCN(Cc4ccccc4)CC3)ccc2c2ccccc12           5.43

For every listed record, write down its pIC50.
1. COc1cccc(CN2CCN(CCCCOc3ccc4c5c(c(=O)oc4c3)CCCC5)CC2)c1
2. O=c1oc2cc(OCCCN3CCC(Cc4ccccc4)CC3)ccc2c2ccccc12
3. COc1cccc(CN(C)CCCOc2ccc3c(c2)oc(=O)c2ccccc23)c1
4. COc1cccc(CN(C)CCCCOc2ccc3c(c2)oc(=O)c2ccccc23)c1
5. CN(CCCCOc1ccc2c(c1)oc(=O)c1ccccc12)Cc1ccccc1
6. O=c1oc2cc(OCCN3CCN(Cc4ccccc4)CC3)ccc2c2c1CCCC2
7. O=c1oc2cc(OCCCN3CCN(Cc4ccccc4)CC3)ccc2c2c1CCCC2

[4.63, 4.67, 4.53, 4.75, 5.19, 4.49, 5.51]

For every listed record, write down its pIC50.
1. CN(CCCOc1ccc2c3c(c(=O)oc2c1)CCCC3)Cc1ccccc1
2. COc1cccc(CN(C)CCOc2ccc3c(c2)oc(=O)c2ccccc23)c1
3. CN(CCCCOc1ccc2c3c(c(=O)oc2c1)CCCC3)Cc1ccccc1
4. COc1cccc(CN2CCN(CCCOc3ccc4c5c(c(=O)oc4c3)CCCC5)CC2)c1

1: 4.80; 2: 4.48; 3: 4.72; 4: 4.74

For every listed record, write down its pIC50.
1. O=c1oc2cc(OCCCCN3CCC(Cc4ccccc4)CC3)ccc2c2c1CCCC2
2. COc1cccc(CC2CCN(CCCCOc3ccc4c5c(c(=O)oc4c3)CCCC5)CC2)c1

1: 4.70; 2: 4.56
